- System: A549
- test.method.notes: relative viability (normalised to negative control = 1, bortezomib = 0) (fraction); higher = less cytotoxic
- study.conditions: inflammatory serum-free RHB-A with cytokines + LPS; 5 d + 24 h CellTiter-Blue; compound 30 nM; GSK126 pretreatment: 5 uM GSK126
Structures can show the parent of a compound that is named as a salt.
Exercise: for every item that follows, state its recorded relative viability.
Give the value as a plain number.

Q: Give the reported value of relative viability for this record: CNNCc1ccc(C(=O)NC(C)C)cc1 [Procarbazine hydrochloride; Procarbazine]
A: 0.962

Q: Give the reported value of relative viability for this record: O=C1c2c(O)ccc(O)c2C(=O)c2c(NCCNCCO)ccc(NCCNCCO)c21 [Mitoxantrone; Mitoxantrone dihydrochloride]
A: 0.483

Q: Give the reported value of relative viability for this record: `Cc1cnc(NC(=O)Nc2cc(Br)c(C)cc2OC[C@@H]2CNCCO2)cn1`
A: 0.539

Q: Give the reported value of relative viability for this record: `Cn1c(Nc2ccc(C(F)(F)F)cc2)nc2cc(Oc3ccnc(-c4ncc(C(F)(F)F)[nH]4)c3)ccc21`
A: 0.826

Q: Give the reported value of relative viability for this record: CNC(=O)c1cc(Oc2ccc(NC(=O)Nc3ccc(Cl)c(C(F)(F)F)c3)cc2)ccn1 [Sorafenib tosylate; Sorafenib; Sorafenib Tosylate]
A: 1.12

Q: Give the reported value of relative viability for this record: CNC(=O)c1cc(Oc2ccc(NC(=O)Nc3cc(C(C)(C)C)nn3-c3ccc4ncccc4c3)c(F)c2)ccn1 [DCC-2036 (Rebastinib)]
A: 1.37

Q: Give the reported value of relative viability for this record: `Cc1cc(Nc2nc(N[C@@H](C)c3ccc(F)cc3)c(C#N)cc2F)n[nH]1`
A: 1.23

Q: Give the reported value of relative viability for this record: `Cn1c(=O)n(-c2ccc(C(C)(C)C#N)cc2)c2c3cc(-c4cnc5ccccc5c4)ccc3ncc21`
A: 0.581

Q: Give the reported value of relative viability for this record: CC[C@@H]1C(=O)N(C)c2cnc(Nc3ccc(C(=O)NC4CCC(N5CCN(CC6CC6)CC5)CC4)cc3OC)nc2N1C(C)C (stereo partly specified)
A: 0.404

Q: Give the reported value of relative viability for this record: `CN(C)C/C=C/C(=O)Nc1cc2c(Nc3ccc(F)c(Cl)c3)ncnc2cc1O[C@H]1CCOC1`
A: 0.389

Q: Give the reported value of relative viability for this record: `CC[C@H](Nc1ncnc2nc[nH]c12)c1nc2cccc(F)c2c(=O)n1-c1ccccc1`
A: 0.899

Q: Give the reported value of relative viability for this record: `COc1ncc(-c2ccc3nccc(-c4ccnnc4)c3c2)cc1NS(=O)(=O)c1ccc(F)cc1F`
A: 0.0446

Q: Give the reported value of relative viability for this record: `Cc1nc(N)sc1-c1ccnc(Nc2ccc(N3CCOCC3)cc2)n1`
A: 0.898

Q: Give the reported value of relative viability for this record: `Cc1ccc(NC(=O)c2ccc(CN3CCN(C)CC3)cc2)cc1Nc1nc(-c2cccnc2)cs1`
A: 0.802

Q: Give the reported value of relative viability for this record: `CCS(=O)(=O)c1cccc(-c2cc(C(=O)NC3CCN(C)CC3)c(C)c3[nH]c4ncc(C)cc4c23)c1`
A: 0.702

Q: Give the reported value of relative viability for this record: `COc1cc2c(Oc3ccc(NC(=O)C4(C(=O)Nc5ccc(F)cc5)CC4)cc3F)ccnc2cc1OCCCN1CCOCC1`
A: 0.797

The origin of these recorded values is the supplement of paper PMC6279402.
